The following compounds are shown together with reported Ki values.
Biological target: JAK3 (Homo sapiens)
Sequence (P52333 1-1124): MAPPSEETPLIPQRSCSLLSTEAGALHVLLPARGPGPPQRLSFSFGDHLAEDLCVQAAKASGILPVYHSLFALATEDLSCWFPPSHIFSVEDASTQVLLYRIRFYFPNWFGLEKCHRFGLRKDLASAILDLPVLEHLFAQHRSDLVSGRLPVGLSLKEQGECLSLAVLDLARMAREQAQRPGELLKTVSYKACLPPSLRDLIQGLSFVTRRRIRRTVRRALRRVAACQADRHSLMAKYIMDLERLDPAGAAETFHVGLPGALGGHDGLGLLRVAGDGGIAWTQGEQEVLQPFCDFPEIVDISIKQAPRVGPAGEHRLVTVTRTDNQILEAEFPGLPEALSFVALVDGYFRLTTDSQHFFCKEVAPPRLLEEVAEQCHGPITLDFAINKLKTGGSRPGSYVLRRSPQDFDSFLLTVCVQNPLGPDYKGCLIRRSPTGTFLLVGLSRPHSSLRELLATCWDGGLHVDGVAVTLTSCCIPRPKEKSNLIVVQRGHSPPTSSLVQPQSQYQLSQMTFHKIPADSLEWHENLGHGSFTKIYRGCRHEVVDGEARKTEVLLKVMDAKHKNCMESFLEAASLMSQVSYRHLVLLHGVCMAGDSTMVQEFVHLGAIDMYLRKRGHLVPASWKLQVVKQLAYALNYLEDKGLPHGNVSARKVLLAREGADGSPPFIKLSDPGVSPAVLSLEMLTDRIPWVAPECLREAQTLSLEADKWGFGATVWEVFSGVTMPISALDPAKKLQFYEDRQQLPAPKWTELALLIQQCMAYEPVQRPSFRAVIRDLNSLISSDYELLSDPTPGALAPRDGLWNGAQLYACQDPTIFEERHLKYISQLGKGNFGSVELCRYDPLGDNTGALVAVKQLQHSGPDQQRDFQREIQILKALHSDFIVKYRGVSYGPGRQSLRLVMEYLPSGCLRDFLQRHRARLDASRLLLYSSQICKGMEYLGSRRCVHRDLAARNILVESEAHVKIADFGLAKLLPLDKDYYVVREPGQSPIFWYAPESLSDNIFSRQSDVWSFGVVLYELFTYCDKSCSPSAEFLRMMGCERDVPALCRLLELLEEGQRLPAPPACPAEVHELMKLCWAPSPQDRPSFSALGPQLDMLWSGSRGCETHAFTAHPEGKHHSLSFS
Test: JAK3 inhibition assay (standard radioactive enzyme assay)
Type: biochemical
Conditions: average Ki if more than one value determined

>>> assay_result("Clc1cnc2[nH]cc(-c3cccc4cccnc34)c2c1")
"500 to 5000 nM"
>>> assay_result("CC(=O)N1[C@H](C)CN(c2cccc(-c3c[nH]c4ncc(C(=O)N5C[C@@H](C)N[C@@H](C)C5)cc34)n2)C[C@@H]1C")
"> 5000 nM"
>>> assay_result("NC(=O)c1ccc(-c2c[nH]c3ncc(Cl)cc23)cc1")
"< 500 nM"
>>> assay_result("CC(C)CNc1cc(C#N)cc(-c2c[nH]c3ncc(Cl)cc23)n1")
"< 500 nM"
>>> assay_result("CC(=O)N1[C@H](C)CN(c2cccc(-c3c[nH]c4ncc(OCCN(C)C)cc34)n2)C[C@@H]1C")
"500 to 5000 nM"

Task: For `Clc1cnc2[nH]cc(-c3ccc4ccccc4c3)c2c1` , write its Ki.
Result: < 500 nM

Task: For `CC(=O)N1[C@H](C)CN(c2cccc(-c3c[nH]c4ncc(NC(=O)N5CCOCC5)cc34)n2)C[C@@H]1C` , write its Ki.
Result: < 500 nM

Task: For `CC(=O)N1[C@H](C)CN(c2cccc(-c3c[nH]c4ncc(NC(=O)c5ccno5)cc34)n2)C[C@@H]1C` , write its Ki.
Result: < 500 nM

Task: For `CC(=O)N1[C@H](C)CN(c2cccc(-c3c[nH]c4ncc(NC(=O)C(C)C)cc34)n2)C[C@@H]1C` , write its Ki.
Result: < 500 nM

Task: For `CCCOC(=O)Nc1cccc(-c2c[nH]c3ncc(Cl)cc23)n1` , write its Ki.
Result: < 500 nM

Task: For CCC(C)C(=O)Nc1cnc2[nH]cc(-c3cccc(N4C[C@@H](C)N(C(C)=O)[C@@H](C)C4)n3)c2c1 (stereo partly shown) , write its Ki.
Result: < 500 nM

Task: For `Cc1cc(-c2c[nH]c3ncc(Cl)cc23)c2ccccc2n1` , write its Ki.
Result: 500 to 5000 nM

Task: For `COC(=O)N1CCCN(c2cccc(-c3c[nH]c4ncc(Cl)cc34)n2)CC1` , write its Ki.
Result: < 500 nM

Task: For Clc1cnc2[nH]cc(-c3cccc(NC4CCc5ccccc54)n3)c2c1 (stereo not shown) , write its Ki.
Result: < 500 nM

Task: For `CC(=O)N1[C@H](C)CN(c2cccc(-c3c[nH]c4ncc(NC(=O)c5ccccc5Cl)cc34)n2)C[C@@H]1C` , write its Ki.
Result: < 500 nM

Task: For `CC(=O)Nc1cnc2[nH]cc(-c3cccc(N4C[C@@H](C)N(C(C)=O)[C@@H](C)C4)n3)c2c1` , write its Ki.
Result: < 500 nM
